tested on: Radical scavenging activity; assay: Effect on glutathione/ferric ion-induced oxidative damage of herring sperm DNA assessed as reduction in 8-OHdG level; format: functional; design: scale not given: the % may be the effect or the level left; conditions: Clupea
The source made the active and inactive calls. No cut-off for these calls is given here.
measured.quantity: Activity

{"molecule": "Oc1cc(O)c2c(c1)OC(c1ccc(O)c(O)c1)CS2 (centres undefined)", "measured.quantity": "Activity", "recorded.measurement": "82%"}
{"molecule": "COc1ccc(C2CSc3c(O)cc(O)cc3O2)cc1 (centres undefined)", "measured.quantity": "Activity", "recorded.measurement": "Active"}
{"molecule": "COc1ccc(C2CSc3ccc(O)cc3O2)cc1 (centres undefined)", "measured.quantity": "Activity", "recorded.measurement": "Active"}
{"molecule": "Oc1cc(O)c2c(c1)OC(c1ccc(O)c(O)c1)C(O)C2 (racemic)", "measured.quantity": "Activity", "recorded.measurement": "36%"}

The reported numbers originate from ChEMBL document CHEMBL1146934.
